Assay: folding stability dG unfold from chymotrypsin proteolysis; higher = more stable
Each entry belongs to exactly one class, chosen by where its folding stability dG unfold falls: lower range (below 1 kcal/mol), middle range (1 kcal/mol to below 3 kcal/mol), upper range (3 kcal/mol or more)

query: Where would SAGGSAGGSASITLTLGDTPLEVSTDPSTNTYTFTYPAPGLVLTLDVSTGKLSARPLAELASAGGSAGGSAG [r3_137_JUSTAS] land among the classes by reported folding stability dG unfold?
result: middle range

query: Where would SAGGSAGGSAGGMKKKKLKEGVEIEFFREGDYLYVTTKIPETGKEETKKVKKVPKDIPLSAGGSAGGSAGGS [r10_240_JUSTAS] land among the classes by reported folding stability dG unfold?
result: lower range

query: Where would SAGSVTTITDPAGTTTEIQPLPDGSLLTTTTTHTTNPATGGATTTTTTTLVSPVPGQPSTTTSTTTTPASAG [r5_424_JUSTAS] land among the classes by reported folding stability dG unfold?
result: lower range

query: Where would MPARVEARRIPDEPRLEVVVDFPGYRVVVRVDEGGRVEVEVVWEENVGPEERAAAEEAAEAFAREVAEALGS [r1_468_TrMRF] land among the classes by reported folding stability dG unfold?
result: middle range

query: Where would SAGGSASIKVTYRFPPDTTVEQAIEDLIAYLEAQTNVKISIPSYTVEREGDYLLVTADILIEPLPESAGGSA [r15_105_TrMRF] land among the classes by reported folding stability dG unfold?
result: upper range

query: Where would SAGGSAGGPNIRIIIKPDPENGTLKIWFVHPEPGRIQKYEFNMNGKWKIKEPVGPMKPGDPGLLSAGGSAGG [r6_149_TrROS] land among the classes by reported folding stability dG unfold?
result: middle range

query: Where would SMEKVKAKPAGEVTFVFDNEDPSLTPEQQVELVEKELEKLPELKIYEVEAEVDLETGKVTIKVKLLVEEVSA [r9_1001_TrMRF] land among the classes by reported folding stability dG unfold?
result: middle range

query: Where would SMKLKLYDPATGKWYELTYDPAKGTVTITYPDGKVITRPVKSIEVNPETGTITITFPDSTETFTVPESLISA [r9_325_JUSTAS] land among the classes by reported folding stability dG unfold?
result: upper range

query: Where would SAGGMHLVIPFDSPEEALEAAKELKKEFEEKGYTVKVYYFPETGDIHVLVEMKTDGKTKYLNVTVPFPSAGG [r13_641_TrMRF] land among the classes by reported folding stability dG unfold?
result: middle range

query: Where would SAGPEPVIRLAREHLERGEVLRITLTGRSGVPRTFLLRPEDILWFFDNLPDPSDIASVDIETYPLGYPPSAG [r5_956_TrMRF] land among the classes by reported folding stability dG unfold?
result: upper range

query: Where would SAGMKKTITIKIEVPEKPIRIIVEKNGKKEEITIKPGETVTIEIELEPGETLRIRIVNEDGEEFEFEIKSAG [r5_187_TrROS_Hall] land among the classes by reported folding stability dG unfold?
result: upper range

query: Where would SAGGSAGGSAGGSGPPKLRLLRRVEVVYDGLVLPPNFPLPPSAPPNLKVFVSLVTLPEGSAGGSAGGSAGGS [r4_436_TrMRF] land among the classes by reported folding stability dG unfold?
result: middle range

query: Where would SAGGSAGGSAGGPYEKAVEAAKALGSEDKPITIKLPNGTTVTLKPSELPSLPYEDPIVLLSAGGSAGGSAGG [r7_863_JUSTAS] land among the classes by reported folding stability dG unfold?
result: lower range

query: Where would SAGGMMKIKITIINENGETLTIEIEVPEEDLEEAIKALEDELKKKGYEIESIERVNGKITITVRIKPSAGGS [r16_662_TrROS_Hall] land among the classes by reported folding stability dG unfold?
result: upper range

query: Where would SAGGSAGGSASSVVTPISHPDGRTGTKVTLPNGTVIEFIFYPDGTIIEINHSNNTTTVTPLVSAGGSAGGSA [r18_285_JUSTAS] land among the classes by reported folding stability dG unfold?
result: middle range

query: Where would SAGGSAGGWKIIEVDPKKGVVMIEMDPEEGNWYVRVPNGPIQRFDSPEEIEEKFGFPVEIYPLPSAGGSAGG [r6_753_TrROS] land among the classes by reported folding stability dG unfold?
result: lower range

query: Where would SAGGKKFKIKEITITYNPDADTVTMTVKLDDGTTVELTFNKETKKLTVKVINKDTGEEKEFEFTLPDSAGGS [r8_363_TrROS_Hall] land among the classes by reported folding stability dG unfold?
result: upper range

query: Where would SAGGKVKVKLSPEMIEALKKAGIKEGQKEVTIEVKLKDGSVYRVTITYDKKTNKITIKVEKVEKLPPSAGGS [r16_497_TrROS_Hall] land among the classes by reported folding stability dG unfold?
result: upper range

query: Where would SAGGSAGGMKVIEIDLPDGSKLKIVIYKDGTLPAYLPEGNKVIVLEIDKNGKIKSVKVFDAKDISAGGSAGG [r6_81_TrMRF] land among the classes by reported folding stability dG unfold?
result: upper range

query: Where would SAGGSAGGKIKVEIEYNGEKKEMTLDEIKALLKKNLPPNATIRVKKNGKTIPLKKVKVKKLKKKSAGGSAGG [r6_936_TrROS_Hall] land among the classes by reported folding stability dG unfold?
result: middle range

query: Where would SAGGSAGGSDKIVERLQKRFPNVRISNIQPTPDGVTIQIENPDGKEFTIPYDELEKHGIEIEPSAGGSAGGS [r12_3_TrROS] land among the classes by reported folding stability dG unfold?
result: lower range

query: Where would SAGGSAGGSAGMRKYTWPFRIPLGGKPFEIRVEMEYDPSSGKHRIEITPEAKDLIKKKIFSAGGSAGGSAGG [r11_91_TrROS] land among the classes by reported folding stability dG unfold?
result: lower range

query: Where would SAGSKVPVTATATFSDKAELEKTVADIKAKTGYDIEVTYDPNSNSYTITVNTTDEVVKMLKEKGFKLESAGG [r19_306_JUSTAS] land among the classes by reported folding stability dG unfold?
result: middle range

query: Where would SAGGSAGGSAGGSKKKPPKKITLVVWNEETGELTKVEFDAETKEVKVEKVPIKPGDILLSAGGSAGGSAGGS [r4_409_TrROS_Hall] land among the classes by reported folding stability dG unfold?
result: lower range

query: Where would SAGKKKKYKIKIKIEISEDGTIKITIEIFDKNGKLVKKIEITIKLPKVKLSEEELKEAAKKGDLEKALKSAG [r5_944_TrROS_Hall] land among the classes by reported folding stability dG unfold?
result: upper range

query: Where would SAGNPSLVKETIIPFTLPDGSEVKLTVKTDPSTGKVTMPIETKDEKVKAKAIELAKKIAEELGFPEVGLSAG [r5_99_JUSTAS] land among the classes by reported folding stability dG unfold?
result: lower range
